# System: PAXF 2053
# Assay notes: 3D clonogenic assay (PDX)
# Type: cell-based, human
# Reported conditions: Homo sapiens; PAXF 2053, Pancreas; read-out: rel. IC50
Experimental readout: pIC50
Quick note: pIC50 values are minus log10 of concentrations in mol/L.

For the molecule O[C@H](c1cc(-c2ccc(Cl)cc2)nc2ccccc12)[C@@H]1CCCCN1 [S1] , give its reported pIC50. 5.25

---

# Tested on: CXF 1783
# Assay notes: 3D clonogenic assay (PDX)
# Assay type: cell-based, human
# Reported conditions: Homo sapiens; CXF 1783, Colorectal; read-out: abs. IC50
Experimental readout: pIC50
pIC50 is defined as minus the log10 of a concentration measured in mol/L.

Dear colleague, please send me the reported pIC50 for O[C@H](c1cc(-c2ccc(Cl)cc2)nc2ccccc12)[C@@H]1CCCCN1 when you can. 5.03
